# Tested on: HS 578T breast
# measurement.protocol: NCI-60 one-dose screen, 48 h (100 = growth as untreated, 0 = no growth, -100 = all killed)
# test.parameters: 10 µM unless noted
The panel holds about 83,000 compounds, 20% with a hit somewhere; the sample as a whole holds those more often.
Think of 50% as a floor: if growth stands on it or above, it is 1; beneath it, -1.

1. O=C(O)c1cn(C2CC2)c2cc(N3CCN(C(=O)N4CCOCC4)CC3)c(F)cc2c1=O    1
2. CS(=O)(=O)Nc1cc(-c2ccc3ncnc(Nc4ccc5c(cnn5Cc5ccccc5F)c4)c3c2)cnc1Cl    -1
3. CN(C)C1CN(C(=O)c2cc(-c3ccc4ncnc(N5CCc6cc(F)c(Cl)cc65)c4c3)cnc2N)C1    -1
4. O=[N+]([O-])c1ccccc1Sc1ccccc1[N+](=O)[O-]    1
5. CC1(C)CC[C@]2(CO)CC[C@]3(C)[C@](O)([C@H](O)C[C@@H]4[C@@]5(C)CCCNC(C)(C)[C@@H]5CC[C@]43C)[C@@H]2C1    1
6. O=C(/C=C/c1cccc(Oc2ccccc2)c1)c1ccc(Nc2nc(Nc3ccc(F)cc3)nc(Nc3ccc(Cl)cc3)n2)cc1    1
7. Cc1ccc2c(c1)nc(C)n2-c1ncnc2c1CC(C)c1cc(O)ccc1N2C (centres undefined)    -1
8. CC(C)Cc1nc(Nc2ccccc2)[nH]c(=O)c1C#N    -1

* * *

# growth annotations
# Test system: ACHN renal
# measurement.protocol: NCI-60 one-dose screen, 48 h (100 = growth as untreated, 0 = no growth, -100 = all killed)
# test.parameters: 10 µM unless noted
Compounds without any hit were thinned out: in the full panel of roughly 83,000, 20% have a hit.
assay.readout: growth (%)

1. CCNC(=O)N1CCc2c(Br)c3c(c(OC)c2C1Cc1ccc(OC)cc1)OCO3 (centres undefined)    33.6
2. Oc1c(CN2CCC(N3CCOCC3)CC2)cc(Cc2cc(CN3CCC(N4CCOCC4)CC3)c(O)c3ncccc23)c2cccnc12    23.5
3. COc1ccc(C2[C@@H](Cl)C(=O)N2c2cc(OC)c(OC)c(OC)c2)cc1Cl (some centres undefined)    33.6
4. C=C[C@@]1(C)CC(=O)[C@@H](C(C)(C)c2cn(C)c3ccc(Br)cc23)C[C@@H]1O[Si](C)(C)C(C)(C)C    111

* * *

# growth annotations
# Test system: NCI-H322M lung
# measurement.protocol: NCI-60 one-dose screen, 48 h (100 = growth as untreated, 0 = no growth, -100 = all killed)
# test.parameters: 10 µM unless noted
This is part of a sample that, as a whole, favours compounds with a hit. Of some 83,000 tested, about 20% had one in any assay.
assay.readout: growth (%)

1) c1cc(OCCN2CCCC2)ccc1CNc1ccc2nc(CCC3CCCCC3)[nH]c2c1    78.2
2) COc1ccc(/C=C(\C(=O)NCc2cccnc2)S(=O)(=O)c2ccccc2)cc1OC    41.3
3) c1ccc2cc(Cn3cc(CSc4nc5ccccc5s4)nn3)ccc2c1    97.6
4) Cc1ccc2c(c1)sc1nc(-c3c[nH]c4ccccc34)c(Nc3ccccc3)n12    106
5) Nc1c(Cl)cc(/C=C2\C=Cc3ccccc32)cc1Cl    106
6) COc1cc(C=Nc2oc(-c3ccccc3)c(-c3ccccc3)c2C#N)cc(CN2CCCC2)c1O    103
7) C=C1CC[C@@H]2C(C)(C)[C@H](O)CC[C@@]2(C)[C@@H]1COc1ccc2ccc(=O)oc2c1    92.4
8) CN(C)/C(N)=N/N=C(\c1ccccc1)c1ccccn1    83.1
9) COc1ccc2[nH]cc(-c3nonc3-c3c[nH]c4ccc(Br)cc34)c2c1    50.5
10) CCOC(=O)c1nnn(Cc2cc(=O)oc3ccc(O)cc23)c1C    105
11) N#CSc1c[nH]c2ccc(/C=C/C(=O)/C=C(O)/C=C/c3ccc4[nH]cc(SC#N)c4c3)cc12    96.9
12) O=C(Nc1ncc(Cc2ccccc2)s1)c1sc2ccccc2c1Cl    43.4
13) CSc1ccc(N2C(=N)C(=S)N(c3ccc(C)cc3)C2=O)cc1    99
14) O=C(NN1C(=O)CSC1c1cccc([N+](=O)[O-])c1)c1ccc(NC(=O)c2ccccn2)cc1 (stereo not given)    90.5
15) CCOC(=O)c1nnn(-c2no[n+]([O-])c2-c2ccc(OC)cc2)c1COc1cccc2cccnc12    98.8
16) O=S(=O)(N=C1C(Cl)=C(Cl)C(=NS(=O)(=O)c2ccccc2)C(Cl)=C1Cl)c1ccccc1    97.4
17) CCN(CC)CCn1c2ccc(OC)cc2c2sc3cc(O)ccc3c(=O)c21    34.2
18) N#Cc1c(-c2ccccc2)nc2c(c(-c3ccccc3)nn2-c2ccccc2)c1-c1ccc(N2CCCCC2)cc1    97.2
19) Cc1ccc(-c2csc(NC(=O)CSc3nc(N)cc(N)n3)n2)cc1    87
20) CNC(=O)c1cc(Oc2ccc3c(c2)sc2nc(-c4ccc(Cl)c(C(F)(F)F)c4)cn23)ccn1    88.5

From: PubChem BioAssay (NCI)
